tested on: NCI-H23 lung; experiment: NCI tumour cell line growth inhibition, 48 h
property_name: TGI

CCOC(=O)/C(=C\NCC(OCC)OCC)c1nc2ccccc2[nH]1 | 56.4 µM
COC(=O)C(C)NP(=O)(OCc1ccc(Cn2cnc3c(=O)[nH]c(N)nc32)cc1)Oc1ccccc1 (stereo unspecified) | > 100 µM
CCCN1CN(C(C(=O)N[C@@H]2C(=O)N3C2SC(C)(C)C3C(=O)O)c2ccccc2)CSC1=S (stereo partly specified) | > 100 µM
COC(=O)C(=O)C(C(=O)C(=O)Nc1ccc(Cl)cc1C)c1nc2ccc(C(=O)c3ccccc3)cc2[nH]c1=O (stereo unspecified) | > 100 µM
C=CCNC(=S)N1c2ccccc2NC(=O)CC1C (stereo unspecified) | > 100 µM
Cc1cc(C)c(O)c(Cc2cccc(Cc3cc(C)cc(C)c3O)c2O)c1 | > 100 µM

Prompt: Can you look up the measured TGI of "O=CN1CCN(C(=O)c2cc(Cl)cc(Cl)c2)C1=S" for me?
Response: 32.5 µM

Prompt: Moving on to COC1C=CC(C(=O)[N+]2=Cc3[nH]c4ccccc4c3CC2)O1 (stereo unspecified)
Response: > 100 µM

Prompt: Moving on to "NNC(=O)c1ccccc1Nc1ccccc1C(=O)NN"
Response: > 100 µM

Prompt: Moving on to CC1=NN(C(=O)CC(=O)Nc2ccccc2Cl)C(=O)C1N=Nc1ccc(C(=O)O)cc1 (stereo unspecified)
Response: > 100 µM

Prompt: Moving on to "Cc1cc(O)c(C(c2cccnc2)c2c(O)cc(C)[nH]c2=O)c(=O)[nH]1"
Response: > 100 µM

Prompt: Moving on to COc1ccc(NC(=O)C(=O)C2CNC(=O)NC2=O)c(OC)c1 (stereo unspecified)
Response: > 100 µM

Prompt: Moving on to Cc1cn(C2CC(O)C(Cn3cc(Cn4ncc(=O)[nH]c4=O)nn3)O2)c(=O)[nH]c1=O (stereo unspecified)
Response: > 100 µM

Prompt: Moving on to "CC1(C)C=C(/C=N/Nc2ccc([N+](=O)[O-])cc2)C(C#N)=C(O)C1(C#N)C#N"
Response: > 100 µM

Prompt: Moving on to "Cn1cccc1-c1cc(-c2cccs2)[nH]c(=O)c1C#N"
Response: > 100 µM

Prompt: Moving on to "CN=C1Nc2ccc(Cl)cc2C(c2ccccc2)=NN1C"
Response: > 100 µM

Prompt: Moving on to C=C(C)CC1=C(OCC)C(OC)(OCC)C1=O (stereo unspecified)
Response: > 100 µM

Prompt: Moving on to "[O-][N+](CCO)(CCO)c1ncnc2nc[nH]c12"
Response: > 100 µM

Prompt: Moving on to "C=C1C(=O)O[C@@H]2C(=O)[C@@H](C)[C@@H]3C=CC(=O)[C@@]3(C)[C@@H](OC(=O)/C(C)=C\C)[C@H]12"
Response: 9.8 µM

Prompt: Moving on to "CN(/N=C/c1cccs1)c1ccc(Cl)cc1[N+](=O)[O-]"
Response: > 100 µM

Prompt: Moving on to COC(=O)C1(C(=O)OC)CC2c3c(c4ccccc4n3C)CC(C1=O)N2Cc1ccccc1 (stereo unspecified)
Response: > 100 µM
